Listed here are molecules together with their documented active-substance concentration, 60 d 40° C..
# assay: Analysis of active substance: preservative concentration before and after storage in VI-containing polymer solution
# Format: physicochemical
# recorded-conditions: in Polymer P3; storage 60 d at 40° C.
Respond with the bare value in ppm.

Past entries and their recorded results:
| molecule | output-unit | val |
| --- | --- | --- |
| Cn1sc(Cl)cc1=O | ppm | 77 |
| CCCCNC(=O)OCC#CI [Iodopropynyl butyl carbamate, iodopropynyl butyl carbamate] | ppm | 107 |
| O=c1[nH]sc2ccccc12 | ppm | 80 |
| Cn1sccc1=O | ppm | 122 |

Now, please, on to the next molecule.
*Q* GET /values?readout=active-substance concentration, 60 d 40° C.&item= "CCCCCCCCn1sccc1=O"
*A* 96

----------
# assay: Analysis of active substance: preservative concentration before and after storage in VI-containing polymer solution
# Assay type: physicochemical
# recorded-conditions: in Polymer P8; storage 60 d at 40° C.
Listed here are molecules together with their documented active-substance concentration, 60 d 40° C..
Respond with the bare value in ppm.

Past entries and their recorded results:
| molecule | output-unit | val |
| --- | --- | --- |
| CCCCCCCCCCCCCCCC[N+](C)(C)Cc1ccccc1.[Cl-] [Polymer 16-BAC, cetylalkonium chloride] | ppm | 940 |
| Cn1sc(Cl)cc1=O [CMIT, 5-chloro-N-methylisothiazolin-3-one] | ppm | 59 |
| Cn1sccc1=O [MIT, methyl-4-isothiazolin-3-one] | ppm | 94 |
| CCCCCCCCn1sccc1=O [OIT, octylisothiazolinone] | ppm | 72 |
| O=c1[nH]sc2ccccc12 [BIT, 1,2-benzisothiazolin-3-one] | ppm | 69 |
| CCCCCCCCCC[N+](C)(C)CCCCCCCCCC.[Cl-] [DDAC, didecyldimethylammonium chloride] | ppm | 940 |
| CCCCCCCCn1sc(Cl)c(Cl)c1=O [DCOIT, dichloroctylisothiazolinone] | ppm | 94 |

*Q* GET /values?readout=active-substance concentration, 60 d 40° C.&item= CCCCNC(=O)OCC#CI [Iodopropynyl butyl carbamate, iodopropynyl butyl carbamate]
*A* 84

----------
# assay: Physical stability; visual assessment (color, turbidity, phase separation)
# Assay type: physicochemical
# Set-up: key: ++: no discernible change with respect to color, turbidity or phase separation; +: marginal change in color number, somewhat increased Tyndall effect but no turbidity; 0: easily discernible increase in color number and moderate turbidity−no phase separation; −: turbidity and change in color number readily discernible by visual assessment; −−: strong color change with strong turbidity and incipient phase separation
# recorded-conditions: Polymer P4 with stabilizer
test-readout: Physical stability, 60 d 40° C.*

Past entries and their recorded results:
| compound | val |
| --- | --- |
| CCCCCCCCCCCCCCCC[N+](C)(C)Cc1ccccc1.[Cl-] [Polymer 16-BAC, cetylalkonium chloride] | + |
| CCCCCCCCCCCCCCCC[n+]1ccccc1 [CPC, cetylpyridinium chloride] | + |
| CCCCCCCCn1sc(Cl)c(Cl)c1=O | − |
| O=c1[nH]sc2ccccc12 | − |
| Cn1sccc1=O | − |
| Cn1sc(Cl)cc1=O | −− |
| CCCCNC(=O)OCC#CI [Iodopropynyl butyl carbamate, iodopropynyl butyl carbamate] | − |
| CCCCCCCCCC[N+](C)(C)CCCCCCCCCC.[Cl-] [DDAC, didecyldimethylammonium chloride] | ++ |

Now, please, on to the next compound.
*Q* GET /values?readout=Physical stability, 60 d 40° C.*&item= "CCCCCCCCn1sccc1=O"
*A* −−
